Ref: patent US20250171776A1

- System: HELA-654 cells
- Procedure text: Hela-654 eGFP assay (incucyte imaging, GFP positive cells, 72 h)
- Assay type: cell-based
- Experimental setup: CXP1 analogs (unnatural amino acids replaced), 72 h, read-out: EC50 (72 h)
Where no end group is shown, it is not given here. [ ]: non-standard residue; d: D form. Api = NC1(C(=O)O)CCNCC1; Iph = iodophenylalanine
Value kind: EC50 (µM)

substance="Lys-Gln-Lys-Thr-Ser-Iph-Gly-Lys-Gly-Pip-Lys-Trp-Lys-Lys (KQKTS[Iph]GKG[Api]KWKK; not fully specified (C-terminus); printed as Lys-Gln-Lys-Thr-Ser-Iph-Gly-Lys-Gly-Pip-Lys-Trp-Lys-Lys; also: PMO conjugate) [PMO-CXP1AA]" test_result=13.1
substance="Lys-Gln-Lys-Thr-Ser-Phe-Gly-Arg-Gly-Lys-Lys-Trp-Lys-Lys (KQKTSFGRGKKWKK; also: PMO conjugate) [PMO-CXP1Z]" test_result=21.1
substance="Lys-Gln-Lys-Thr-Ser-Iph-Gly-Arg-Gly-Lys-Lys-Trp-Lys-Lys (KQKTS[Iph]GRGKKWKK; also: PMO conjugate) [PMO-CXP1Y]" test_result=14.4
substance="Lys-Gln-Lys-Thr-Ser-Phe-Gly-Arg-Gly-Pip-Lys-Trp-Lys-Lys (KQKTSFGRG[Api]KWKK; not fully specified (C-terminus); printed as Lys-Gln-Lys-Thr-Ser-Phe-Gly-Arg-Gly-Pip-Lys-Trp-Lys-Lys; also: PMO conjugate) [PMO-CXP1X]" test_result=17.4
